The measured values listed here are drawn from patent US20220356174A1.

System: various lung cancer cell lines
testDetails: Long term proliferation (LTP) assay in various cancer cell lines
Format: cell-based
protocolConditions: Homo sapiens, Calu-6, CALU6; SMARCA4 protein Present; Lung NSCLC undifferentiated carcinoma
metric: IC50 (nM)

structureNotation | metric | endpointValue
N#Cc1sc(C(=O)Nc2cc(F)c(=O)n(CCF)c2)cc1Cl | IC50 | 1210
O=C(Nc1cc(F)c(=O)n(CC(F)F)c1)c1cc(Cl)c(C(F)(F)F)s1 | IC50 | 1400

###

Reported pIC50 values, SMARCA2 (Homo sapiens, UniProt P51531).
pIC50: −log10 of the molar value.

molecule | pIC50
N#Cc1ncc(C(=O)Nc2cc(F)c(=O)n(CC(F)(F)F)c2)s1 [Compound 151] | 7.54
N#Cc1cc(C(=O)Nc2cc(F)c(=O)n(CC(F)(F)F)c2)sc1C#N [Compound 190] | 7.46
O=C(Nc1cc(F)c(=O)n(CC(F)(F)F)c1)c1cc(Cl)c(Cl)s1 [Compound 141] | 6.40
N#Cc1cc(C(=O)Nc2cc(Cl)c(=O)n(CCF)c2)sc1C#N [Compound 192] | 7.66
N#Cc1cc(C(=O)Nc2cc(F)c(=O)n(CCF)c2)[nH]n1 [Compound 176] | 7.09
O=C(Nc1ccc(=O)n(CC(F)(F)F)c1)c1cc(Cl)n[nH]1 [Compound 145] | 5.30
CCn1cc(NC(=O)c2cc(Cl)c(Cl)n2C)ccc1=O [Compound 1] | 5.15
O=C(Nc1cc(F)c(=O)n(CCF)c1)c1cnc(C(F)(F)F)s1 [Compound 265] | 6.84
O=C(Nc1cc(F)c(=O)n(CC(F)(F)F)c1)c1cnc(Cl)s1 [Compound 143] | 6.77

###

targetEntity: FL-SMARCA4 (Homo sapiens)
Sequence (P51532 whole entry): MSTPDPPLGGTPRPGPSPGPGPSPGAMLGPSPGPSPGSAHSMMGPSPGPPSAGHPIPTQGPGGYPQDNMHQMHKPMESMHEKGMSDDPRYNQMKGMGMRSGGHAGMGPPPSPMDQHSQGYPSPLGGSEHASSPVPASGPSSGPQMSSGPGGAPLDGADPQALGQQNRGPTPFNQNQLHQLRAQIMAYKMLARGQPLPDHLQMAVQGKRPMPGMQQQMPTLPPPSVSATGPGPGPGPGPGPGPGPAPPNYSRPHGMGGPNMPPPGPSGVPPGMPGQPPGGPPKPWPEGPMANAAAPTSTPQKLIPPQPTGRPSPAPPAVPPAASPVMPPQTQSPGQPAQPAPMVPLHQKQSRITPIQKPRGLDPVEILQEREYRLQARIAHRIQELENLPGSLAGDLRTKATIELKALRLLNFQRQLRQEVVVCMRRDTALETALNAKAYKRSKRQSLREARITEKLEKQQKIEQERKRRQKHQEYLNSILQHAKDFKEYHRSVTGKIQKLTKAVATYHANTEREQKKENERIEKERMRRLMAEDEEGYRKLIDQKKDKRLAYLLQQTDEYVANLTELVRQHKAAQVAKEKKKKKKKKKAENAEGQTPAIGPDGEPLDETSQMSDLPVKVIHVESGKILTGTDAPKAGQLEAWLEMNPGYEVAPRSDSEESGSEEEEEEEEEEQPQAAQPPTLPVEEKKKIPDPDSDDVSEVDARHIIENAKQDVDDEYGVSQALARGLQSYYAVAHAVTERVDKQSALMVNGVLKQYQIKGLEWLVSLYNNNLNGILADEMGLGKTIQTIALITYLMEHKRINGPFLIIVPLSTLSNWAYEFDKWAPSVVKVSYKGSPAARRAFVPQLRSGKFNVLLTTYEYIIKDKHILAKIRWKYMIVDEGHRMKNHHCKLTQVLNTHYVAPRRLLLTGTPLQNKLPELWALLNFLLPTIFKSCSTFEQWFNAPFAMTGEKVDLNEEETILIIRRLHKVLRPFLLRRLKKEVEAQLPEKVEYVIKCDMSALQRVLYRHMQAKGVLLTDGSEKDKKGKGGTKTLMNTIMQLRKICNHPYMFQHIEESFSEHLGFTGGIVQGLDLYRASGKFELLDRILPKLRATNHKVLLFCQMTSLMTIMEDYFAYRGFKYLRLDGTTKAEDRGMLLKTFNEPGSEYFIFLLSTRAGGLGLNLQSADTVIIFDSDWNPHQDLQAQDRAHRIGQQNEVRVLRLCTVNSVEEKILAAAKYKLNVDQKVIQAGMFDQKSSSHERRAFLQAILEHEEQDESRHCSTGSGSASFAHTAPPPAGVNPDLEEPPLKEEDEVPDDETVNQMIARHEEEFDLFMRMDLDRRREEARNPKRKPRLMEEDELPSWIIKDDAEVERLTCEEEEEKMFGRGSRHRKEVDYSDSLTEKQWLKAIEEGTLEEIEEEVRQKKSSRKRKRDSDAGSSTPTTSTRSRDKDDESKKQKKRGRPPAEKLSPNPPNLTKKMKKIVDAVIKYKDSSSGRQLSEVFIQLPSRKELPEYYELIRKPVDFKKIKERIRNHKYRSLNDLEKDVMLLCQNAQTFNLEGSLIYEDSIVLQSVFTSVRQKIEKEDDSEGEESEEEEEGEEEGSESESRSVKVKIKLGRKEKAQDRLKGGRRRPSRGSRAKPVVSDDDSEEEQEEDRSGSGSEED
testDetails: SMARCA4 ATPase activity assay (ADP-Glo, chicken mononucleosome substrate)
protocolConditions: FL-SMARCA4 IC50
pIC50: −log10 of the molar value.
pIC50 reference

molecule | inequalitySign | pIC50
O=C(Nc1cc(F)c(=O)n(CC(F)F)c1)c1cc(Cl)on1 [Compound 44d] | < | 4.30
O=C(Nc1cc(F)c(=O)n(CC(F)F)c1)c1cc(C#CC2CCO2)c(Cl)s1 (centres unmarked) [Compound 77d] | = | 6.33
CCn1cc(NC(=O)c2cc(Cl)c(Cl)s2)c(F)cc1=O [Compound 31d] | < | 4.30
CN1CC(C#Cc2cc(C(=O)Nc3cc(F)c(=O)n(CC(F)F)c3)sc2Cl)CC1=O (centres unmarked) [Compound 113d] | = | 5.54
O=C(Nc1cc(F)c(=O)n(CC(F)F)c1)c1cc(C#Cc2ccc3nccn3c2)c(Cl)s1 [Compound 115d] | = | 7.00
CC1(C)CC(C#Cc2cc(C(=O)Nc3cc(F)c(=O)n(CC(F)F)c3)sc2Cl)CC(C)(C)N1 [Compound 121d] | = | 4.76
N#Cc1cc(C(=O)Nc2cc([N+](=O)[O-])c(=O)n(CC(F)F)c2)sc1C(F)(F)F [Compound 117d] | < | 4.30
O=C(Nc1cc(F)c(=O)n(CC(F)F)c1)c1cc(C#CC(F)(F)F)c(Cl)s1 [Compound 74d] | = | 5.99
O=C(Nc1cc(F)c(=O)n(CC(F)F)c1)c1cc(C#CC2OCCCO2)c(Cl)s1 [Compound 101d] | = | 6.55
COc1ncc(C(=O)Nc2cc(F)c(=O)n(CC(F)F)c2)cc1F [Compound 42d] | < | 4.30
O=C1C[C@H](C#Cc2cc(C(=O)Nc3cc(F)c(=O)n(CC(F)F)c3)sc2Cl)CCN1 [Compound 63d] | = | 6.29
O=C1Cc2ncc(C#Cc3cc(C(=O)NC4=NC(CC(F)F)C(=O)C(F)=C4)sc3Cl)cc2N1 (centres unmarked) [Compound 58d] | = | 6.99
CCc1c(NC(=O)c2cc(Cl)c(Cl)s2)ccc(=O)n1CC [Compound 30d] | < | 4.30
CN(C)CC#Cc1cc(NC(=O)c2cc(F)c(Cl)s2)cn(CC(F)F)c1=O [Compound 45d] | < | 4.30
O=C(Nc1cc(F)c(=O)n(CC(F)F)c1)c1cc(C#CC2CNCCO2)c(Cl)s1 (centres unmarked) [Compound 109d] | = | 5.50
N#Cc1sc(C(=O)Nc2cc(F)c(=O)n(CC(F)F)c2)cc1C#C[C@H]1C[C@@H](O)C1 [Compound 105d] | = | 7.04
Cc1cc(=O)n(C)cc1NC(=O)[C@@H]1CCCO[C@H]1c1cn[nH]c1 | < | 4.30

###

pIC50 values, listed per item
targetEntity: FL-SMARCA2 (full-length human SMARCA2 isoform 1) (Homo sapiens, UniProt P51531)
Construct: FLAG tag (YKDDDDK) (C); made in house; host or cells: Sf21 insect cells (baculovirus, pFastBacI)
Sequence (P51531 with tags, fused parts or gaps): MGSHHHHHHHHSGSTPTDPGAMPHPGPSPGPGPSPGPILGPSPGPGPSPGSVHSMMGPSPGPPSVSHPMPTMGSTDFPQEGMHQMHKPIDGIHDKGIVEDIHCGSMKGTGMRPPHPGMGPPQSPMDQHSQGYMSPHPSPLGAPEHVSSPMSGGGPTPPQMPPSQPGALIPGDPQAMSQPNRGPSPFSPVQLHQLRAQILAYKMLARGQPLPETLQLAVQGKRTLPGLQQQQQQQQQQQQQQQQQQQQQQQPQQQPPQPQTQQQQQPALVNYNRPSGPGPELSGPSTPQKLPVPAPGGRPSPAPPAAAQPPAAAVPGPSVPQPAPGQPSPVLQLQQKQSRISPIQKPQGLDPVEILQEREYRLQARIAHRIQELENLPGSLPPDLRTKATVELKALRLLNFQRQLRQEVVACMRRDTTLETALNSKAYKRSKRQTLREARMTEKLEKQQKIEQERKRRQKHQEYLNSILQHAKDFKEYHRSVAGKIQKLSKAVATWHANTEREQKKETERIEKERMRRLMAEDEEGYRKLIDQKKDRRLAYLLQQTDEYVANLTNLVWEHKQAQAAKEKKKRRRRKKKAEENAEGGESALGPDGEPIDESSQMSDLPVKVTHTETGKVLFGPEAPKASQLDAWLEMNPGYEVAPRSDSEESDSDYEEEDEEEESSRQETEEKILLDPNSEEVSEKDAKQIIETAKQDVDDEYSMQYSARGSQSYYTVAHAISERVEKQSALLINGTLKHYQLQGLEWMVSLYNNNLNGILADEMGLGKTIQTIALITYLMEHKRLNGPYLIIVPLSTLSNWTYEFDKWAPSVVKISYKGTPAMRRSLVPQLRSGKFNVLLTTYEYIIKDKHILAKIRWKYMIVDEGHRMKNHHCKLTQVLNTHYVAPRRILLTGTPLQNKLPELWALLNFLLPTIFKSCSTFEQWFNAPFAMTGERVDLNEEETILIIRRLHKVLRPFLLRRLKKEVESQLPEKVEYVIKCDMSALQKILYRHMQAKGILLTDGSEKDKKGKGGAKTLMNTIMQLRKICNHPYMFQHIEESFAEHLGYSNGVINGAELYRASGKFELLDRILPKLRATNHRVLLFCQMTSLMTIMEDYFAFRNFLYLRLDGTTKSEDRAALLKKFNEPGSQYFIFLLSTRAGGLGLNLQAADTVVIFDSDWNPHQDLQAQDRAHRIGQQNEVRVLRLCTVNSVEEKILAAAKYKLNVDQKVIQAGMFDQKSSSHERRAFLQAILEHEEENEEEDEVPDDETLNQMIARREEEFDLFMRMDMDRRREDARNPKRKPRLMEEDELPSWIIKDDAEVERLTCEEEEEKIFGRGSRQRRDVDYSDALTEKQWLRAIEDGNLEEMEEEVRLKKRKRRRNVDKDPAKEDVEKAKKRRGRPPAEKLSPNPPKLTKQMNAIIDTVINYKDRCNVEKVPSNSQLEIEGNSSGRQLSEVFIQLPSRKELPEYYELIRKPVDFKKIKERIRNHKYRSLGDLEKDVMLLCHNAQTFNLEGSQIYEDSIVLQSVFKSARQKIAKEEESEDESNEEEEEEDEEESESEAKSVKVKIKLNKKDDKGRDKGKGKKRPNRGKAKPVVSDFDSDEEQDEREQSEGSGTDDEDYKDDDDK
testDetails: SMARCA2 ATPase activity assay (ADP-Glo, chicken mononucleosome substrate)
Type: biochemical
protocolConditions: Table 3.1; ATPase assay, enzyme 5 nM, ATP 250 uM, chicken mononucleosome 10 nM, 30 min preincubation
Protocol: Molecular Biology: Full-length human SMARCA2 isoform 1 (P51531) transcript clone was amplified from a cDNA library incorporating an N-terminal HIS tag ([…]) fused directly to Ser2 of SMARCA2 and a C-FLAG tag (YKDDDDK) fused directly to Glu1590 of SMARCA2. […] Expressed full-length SMARCA2 was purified from cell paste by FLAG affinity chromatography followed by anion exchange chromatography. […] The purity of the protein was measured as 74% using micro-capillary based gel electrophoresis.
pIC50: −log10 of the molar value.

molecule | inequalitySign | pIC50
N#Cc1cc(NC(=O)c2cc(Cl)c(Cl)s2)cn(CCF)c1=O [Compound 193] | = | 5.91
N#Cc1[nH]c(C(=O)Nc2ccc(=O)n(CC(F)(F)F)c2)cc1Cl [Compound 234] | = | 6.32
CCn1cc(NC(=O)c2ccc(Br)n2C)ccc1=O [Compound 19] | < | 4.30
CCn1cc(NC(=O)c2cc(C#Cc3cccnc3)c(Cl)s2)ccc1=O [Compound 287] | = | 5.89
CCn1cc(NC(=O)c2cc(Cl)c(Cl)s2)cc(C#N)c1=O [Compound 123] | = | 5.92
Cn1c(C(=O)Nc2cc(C#N)c(=O)n(CC(F)(F)F)c2)cnc1Cl [Compound 214] | = | 4.52
O=C(Nc1cc(F)c(=O)n(CCn2ccnc2)c1)c1cc(Cl)c(Cl)s1 [Compound 274] | < | 4.30
CCn1cc(NC(=O)c2ccc(I)n2C)ccc1=O [Compound 48] | = | 4.85
N#Cc1cc(C(=O)Nc2cc(Cl)c(=O)n(CC(F)(F)F)c2)sc1Cl [Compound 208] | = | 6.91
N#Cc1[nH]c(C(=O)Nc2cc(F)c(=O)n(CCF)c2)cc1Cl [Compound 232] | = | 7.60
Cn1nc(C(=O)Nc2cc(F)c(=O)n(CCF)c2)cc1C#N [Compound 244] | < | 4.30
CCn1cc(NC(=O)c2cc(C#Cc3ccncc3)c(Cl)s2)ccc1=O [Compound 334] | = | 6.74
CCn1cc(NC(=O)c2cnc(-c3ccc4c(c3)CCO4)s2)ccc1=O [Compound 5] | < | 4.30
Cc1cc(NC(=O)c2cnn(-c3cccc(Cl)c3)c2C)c[nH]c1=O [Compound 4] | < | 4.30
CC(F)Cn1cc(NC(=O)c2cc(Cl)c(C(F)(F)F)s2)cc(F)c1=O (stereo not shown) [Compound 331] | = | 6.77
Cn1c(C(=O)Nc2cc(C#N)c(=O)n(CCF)c2)cc(Cl)c1C#N [Compound 204] | = | 5.90
CC(=O)Nc1sc(C(=O)Nc2cc(F)c(=O)n(CCF)c2)cc1Cl [Compound 315] | < | 4.30
Cn1c(C(=O)Nc2cc(Cl)c(=O)n(CC(F)(F)F)c2)cc(Cl)c1C#N [Compound 163] | = | 6.51
CCn1cc(NC(=O)c2cc(Cl)n[nH]2)ccc1=O [Compound 94] | = | 5.50

###

targetEntity: FL-SMARCA2 (full-length human SMARCA2 isoform 1) (Homo sapiens, UniProt P51531)
Construct: FLAG tag (YKDDDDK) (C); made in house; host or cells: Sf21 insect cells (baculovirus, pFastBacI)
testDetails: SMARCA2 ATPase activity assay (ADP-Glo, chicken mononucleosome substrate)
Assay type: biochemical
protocolConditions: Table 3d.1; ATPase assay, enzyme 5 nM, ATP 250 uM, chicken mononucleosome 10 nM, 30 min preincubation; read-out: FL-SMARCA2 IC>50
pIC50: −log10 of the molar value.

compound | targetEntity | inequalitySign | pIC50
N#Cc1cncc(C#Cc2cc(C(=O)Nc3cc(F)c(=O)n(CC(F)F)c3)sc2Cl)c1 [Compound 64d] | FL-SMARCA2 (full-length human SMARCA2 isoform 1) (Homo sapiens, UniProt P51531) | = | 6.78
CC(N)C#Cc1sc(C(=O)Nc2cc(F)c(=O)n(CC(F)F)c2)cc1Cl (centres unmarked) [Compound 131d] | FL-SMARCA2 (full-length human SMARCA2 isoform 1) (Homo sapiens, UniProt P51531) | < | 4.30
CCn1nc(NC(=O)c2cnc(Cl)s2)ccc1=O [Compound 20d] | FL-SMARCA2 (full-length human SMARCA2 isoform 1) (Homo sapiens, UniProt P51531) | = | 5.13
CCc1c(NC(=O)c2cc(Cl)c(Cl)s2)ccc(=O)n1CC [Compound 30d] | FL-SMARCA2 (full-length human SMARCA2 isoform 1) (Homo sapiens, UniProt P51531) | < | 4.30
CNC(=O)c1cc(C#Cc2cc(C(=O)Nc3cc(F)c(=O)n(CC(F)F)c3)sc2Cl)on1 [Compound 55d] | FL-SMARCA2 (full-length human SMARCA2 isoform 1) (Homo sapiens, UniProt P51531) | = | 7.03
O=C(Nc1cc(F)c(=O)n(CC(F)F)c1)c1ccc(-c2ccccn2)s1 [Compound 34d] | FL-SMARCA2 (full-length human SMARCA2 isoform 1) (Homo sapiens, UniProt P51531) | < | 4.30
Cc1nc(-c2ccc(C(=O)Nc3cc(F)c(=O)n(CC(F)F)c3)s2)cs1 [Compound 33d] | FL-SMARCA2 (full-length human SMARCA2 isoform 1) (Homo sapiens, UniProt P51531) | < | 4.30
N#Cc1sc(C(=O)Nc2cc(F)c(=O)n(CC(F)F)c2)cc1C#C[C@H]1C[C@H](O)C1 [Compound 104d] | FL-SMARCA2 (full-length human SMARCA2 isoform 1) (Homo sapiens, UniProt P51531) | = | 7.52
O=C(Nc1cc(F)c(=O)n(CC(F)F)c1)c1nc(Cl)c[nH]1 [Compound 51d] | FL-SMARCA2 (full-length human SMARCA2 isoform 1) (Homo sapiens, UniProt P51531) | < | 4.30
O=C(Nc1cc(F)c(=O)n(CC(F)F)c1)c1cc(C#CC2CCS(=O)(=O)CC2)c(Cl)s1 [Compound 99d] | FL-SMARCA2 (full-length human SMARCA2 isoform 1) (Homo sapiens, UniProt P51531) | = | 6.71
O=C(Nc1cc(F)c(=O)n(CC(F)F)c1)c1cc(C#CC2CCCNC2)c(Cl)s1 (centres unmarked) [Compound 108d] | FL-SMARCA2 (full-length human SMARCA2 isoform 1) (Homo sapiens, UniProt P51531) | = | 6.27
O=C(Nc1cc(F)c(=O)n(CC(F)F)c1)c1cc(C#CC(=O)N2CCCC2)c(Cl)s1 [Compound 70d] | FL-SMARCA2 (full-length human SMARCA2 isoform 1) (Homo sapiens, UniProt P51531) | = | 5.77
O=C(Nc1cc(F)c(=O)n(CC(F)F)c1)c1cc(C#CC23CC(CO)(C2)C3)c(Cl)s1 [Compound 135d] | FL-SMARCA2 (full-length human SMARCA2 isoform 1) (Homo sapiens, UniProt P51531) | = | 6.80
N#Cc1cc(C(=O)Nc2cc([N+](=O)[O-])c(=O)n(CC(F)F)c2)sc1C(F)(F)F [Compound 117d] | FL-SMARCA2 (full-length human SMARCA2 isoform 1) (Homo sapiens, UniProt P51531) | = | 4.65
CC(N)C#Cc1cc(C(=O)Nc2cc(F)c(=O)n(CC(F)F)c2)sc1Cl (centres unmarked) [Compound 138d] | FL-SMARCA2 (full-length human SMARCA2 isoform 1) (Homo sapiens, UniProt P51531) | = | 5.77
CC1(C)CC(C#Cc2cc(C(=O)Nc3cc(F)c(=O)n(CC(F)F)c3)sc2Cl)CC(C)(C)N1 [Compound 121d] | FL-SMARCA2 (full-length human SMARCA2 isoform 1) (Homo sapiens, UniProt P51531) | = | 4.77
Cn1cc(C#Cc2cc(C(=O)Nc3cc(F)c(=O)n(CC(F)F)c3)sc2Cl)ccc1=O [Compound 60d] | FL-SMARCA2 (full-length human SMARCA2 isoform 1) (Homo sapiens, UniProt P51531) | = | 7.74
